The following molecules were reported with pIC50 values on Coagulation factor X (Homo sapiens) in different studies.
pIC50: −log10 of the molar value.

Known pIC50 results, listed for orientation:
- molecule: "Cn1ccc(OCC23CNC(CNc4cccc5c(N)nccc45)(C2)C3)cc1=O"
  pIC50: "< 4.40"
- molecule: "Cc1cn(C)nc1CNC(=O)c1nn(-c2cccc(Cl)c2)c2c1CCN(c1ccc3c(c1)C(=O)N(C)CC3)C2=O"
  pIC50: "4.40 to 5.00"
- molecule: "Cc1cc(CNC(=O)c2nn(-c3cccc(Cl)c3)c3c(=O)n(-c4ccc5c(c4)C(=O)N(CCO)CC5)c(C)nc23)nn1C"
  pIC50: "< 4.40"
- molecule: "CCNC(=O)c1nn(-c2cccc(Cl)c2)c2c1CCN(c1cccc(N3CCN(C)C3=O)c1)C2=O"
  pIC50: "< 4.40"

Exam item: So what's the measured pIC50 for this one? CN1CCc2ccc(N3CCc4c(C(=O)NC5(C)CCOCC5)nn(-c5cccc(Cl)c5)c4C3=O)cc2C1=O
Marked response: < 4.40

Exam item: So what's the measured pIC50 for this one? CN1CCC(OCc2ccc(CNc3cccc4c(N)nccc34)c(F)c2)CC1
Marked response: < 4.70

Exam item: So what's the measured pIC50 for this one? CCNC(=O)c1nn(-c2cccc(Cl)c2)c2c1CCN(c1cccc(N3C(=O)CC[C@H]3C)c1)C2=O
Marked response: < 4.40

Exam item: So what's the measured pIC50 for this one? CN1Cc2cc(OCC34COC(CNc5cccc6c(N)nccc56)(C3)C4)ccc2C1=O
Marked response: < 4.40

###

The following compounds were reported with IC50 values on UniProt P00742 in different studies.

- compound: "Cc1cc(C)c(CNC(=O)c2nn(-c3cccc(Cl)c3)c3c2CCN(c2ccc4c(c2)C(=O)N(C)CC4)C3=O)cn1"
  IC50: "> 40 µM"
- compound: "CN1CCc2ccc(N3CCc4c(C(=O)NC5CCCC5)nn(-c5cccc(Cl)c5)c4C3=O)cc2C1"
  IC50: "3 to 10 µM"
- compound: "CN1CCC(OCc2ccc(CNc3ccc4c(N)nccc4c3)cc2)C(F)(F)C1 (stereo not drawn)"
  IC50: "10 to 40 µM"
- compound: "CN1CCc2ccc(N3CCc4c(C(=O)NCC5CC5)nn(-c5cccc(C#N)c5)c4C3=O)cc2C1=O"
  IC50: "> 40 µM"
- compound: "O=C(NCc1ccnnc1)c1nn(-c2cccc(Cl)c2)c2c1CCN(c1ccc3c(c1)CN(CCO)CC3)C2=O"
  IC50: "> 40 µM"
- compound: "Cc1ccncc1CNC(=O)c1nn(-c2cccc(Cl)c2)c2c1CCN(c1ccc3c(c1)C(=O)N(CCO)CCO3)C2=O"
  IC50: "10 to 40 µM"
- compound: "CN1CCc2ccc(N3CCc4c(C(=O)NCC5(CO)CC5)nn(-c5cccc(Cl)c5)c4C3=O)cc2C1=O"
  IC50: "> 40 µM"
- compound: "O=C(NCc1cnccc1Cl)c1nn(-c2cccc(Cl)c2)c2c1CCN(c1ccc3c(c1)CN(CCO)CC3)C2=O"
  IC50: "10 to 40 µM"
- compound: "CN1CCc2ccc(N3CCc4c(C(=O)NCC5COC5)nn(-c5cccc(Cl)c5)c4C3=O)cc2C1=O"
  IC50: "> 40 µM"
- compound: "CCNC(=O)c1nn(-c2cccc(Cl)c2)c2c1CCN(c1cccc(N3C(=O)CC[C@@H]3C)c1)C2=O"
  IC50: "> 40 µM"

Exam item: Entry Cc1cc(CNC(=O)c2nn(-c3cccc(Cl)c3)c3c2CCN(c2ccc4c(c2)C(=O)N(CC(N)=O)CCO4)C3=O)nn1C , system UniProt P00742: what IC50 was measured?
Marked response: 1 to 3 µM

Exam item: Entry CCN1CCOc2ccc(N3CCc4c(C(=O)NCc5cc(C)n(C)n5)nn(-c5cccc(Cl)c5)c4C3=O)cc2C1=O , system UniProt P00742: what IC50 was measured?
Marked response: 3 to 10 µM

Exam item: Entry Cc1cc(CNC(=O)c2nn(-c3cccc(Cl)c3)c3c2CCN(c2ccc4c(c2)CCN(C)C4=O)C3=O)nn1C , system UniProt P00742: what IC50 was measured?
Marked response: > 40 µM

Exam item: Entry CN1CCC(CNc2ccc(CNc3ccnc(N)c3)cn2)CC1 , system UniProt P00742: what IC50 was measured?
Marked response: 10 to 40 µM

Exam item: Entry Nc1nccc2c(NCC34CC(COc5ccn6ccnc6c5)(C3)C4)cccc12 , system UniProt P00742: what IC50 was measured?
Marked response: 10 to 40 µM
